All figures here come from patent US20150329642A1.

target.or.system: T1, cMetECDHis (human, UniProt P08581 25-932, limits assumed, biotinylated in the cross-block ELISA of Example 17)
T1 construct: Expressed in HEK-293F cells; also called soluble cMetECDHis; biotinylated cMetECDHis
test.name: cross-block ELISA; competitor 008

binder	unit.info	residual binding, % of no competitor
IgG1-1016-022 (antibody, V domains shown, also called TH1016-022; PC1016-022) VH: QVQLVESGGGVVQPGRSLRLSCAASGFTFSSYAMHWVRQAPGKGLEWVAVISYDGSNKYYADSVKGRFTISRDNSKNTLYLQMNSLRAEDTAVYYCARELLWFGELWGYFDLWGRGTLVTVSS VL: DIQMTQSPSSVSASVGDRVTITCRASQGISSWLAWYQHKPGKAPKLLIYAASSLQSGVPSRFSGSGSGTDFTLTISSLQPEDFATYYCQEASSFTWTFGQGTKVEIK	%	94.1
anti-c-Met HuMab 181 (IgG1) (antibody, V domains shown, also called TH1016-181; PC1016-181) VH: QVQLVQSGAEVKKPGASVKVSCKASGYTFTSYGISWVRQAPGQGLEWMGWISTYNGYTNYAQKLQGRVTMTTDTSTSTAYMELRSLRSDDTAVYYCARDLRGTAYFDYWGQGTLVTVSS VL: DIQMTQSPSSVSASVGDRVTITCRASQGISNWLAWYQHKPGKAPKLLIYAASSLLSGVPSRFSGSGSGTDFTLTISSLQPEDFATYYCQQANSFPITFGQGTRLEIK	%	98.7
IgG1-024 (antibody, V domains shown, also called TH1016-024; PC1016-024) VH: EVQLLESGGGLVQPGGSLRLSCVASGFTFSSYAMSWVRQAPGKGLEWVSAISGSSGGSTYYVDSVKGRFTISRANSKNTLYLQMNSLRAEDTAVYYCAKDLDRGWMGYFGYWGQGTLVTVSS VL: DIQMTQSPSSVSASVGDRVTITCRASQGISSWLAWYQHKPGKAPKLLIYAASSLQSGVPSRFSGSGSGTDFTLTISSLQPEDFATYYCQQANSFPTFGQGTRLEIK	%	104
